The values you see were collected from patent US20240132525A1.

Biological target: JAK2 (Homo sapiens (Human), UniProt O60674)
Sequence (O60674 whole entry, species assumed): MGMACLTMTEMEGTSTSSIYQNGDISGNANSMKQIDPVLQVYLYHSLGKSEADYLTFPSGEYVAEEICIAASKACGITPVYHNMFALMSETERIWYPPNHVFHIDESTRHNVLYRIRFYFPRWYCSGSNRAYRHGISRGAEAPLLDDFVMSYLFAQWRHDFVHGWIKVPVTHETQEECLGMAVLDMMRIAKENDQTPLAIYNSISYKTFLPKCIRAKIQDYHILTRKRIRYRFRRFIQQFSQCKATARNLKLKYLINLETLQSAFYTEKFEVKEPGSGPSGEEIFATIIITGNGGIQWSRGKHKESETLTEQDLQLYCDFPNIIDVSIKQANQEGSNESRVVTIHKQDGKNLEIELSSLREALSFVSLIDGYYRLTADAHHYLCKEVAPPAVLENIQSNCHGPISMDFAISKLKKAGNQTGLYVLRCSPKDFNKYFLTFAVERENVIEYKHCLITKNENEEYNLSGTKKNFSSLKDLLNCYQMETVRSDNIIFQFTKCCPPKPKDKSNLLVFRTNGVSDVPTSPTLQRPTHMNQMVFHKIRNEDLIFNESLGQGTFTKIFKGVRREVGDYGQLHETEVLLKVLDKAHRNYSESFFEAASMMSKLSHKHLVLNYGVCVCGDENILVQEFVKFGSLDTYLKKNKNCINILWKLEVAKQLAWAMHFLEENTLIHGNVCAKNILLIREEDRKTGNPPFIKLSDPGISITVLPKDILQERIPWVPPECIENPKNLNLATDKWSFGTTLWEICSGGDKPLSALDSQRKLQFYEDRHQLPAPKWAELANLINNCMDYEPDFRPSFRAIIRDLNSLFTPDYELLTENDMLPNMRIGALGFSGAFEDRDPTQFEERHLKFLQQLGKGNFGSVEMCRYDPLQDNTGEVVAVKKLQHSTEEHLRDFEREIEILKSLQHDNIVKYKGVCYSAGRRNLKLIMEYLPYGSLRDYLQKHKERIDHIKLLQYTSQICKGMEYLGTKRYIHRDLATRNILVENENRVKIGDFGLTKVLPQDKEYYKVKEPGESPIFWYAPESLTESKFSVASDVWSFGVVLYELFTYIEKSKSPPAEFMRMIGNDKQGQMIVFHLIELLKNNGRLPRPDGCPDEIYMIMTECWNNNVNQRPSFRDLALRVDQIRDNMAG
Assay: Biochemical kinase assay (33P-ATP filter-binding), JAK2
Settings: Table 3a; read-out: IC50 JAK2
parameter: IC50 (nM)

[
  {
    "compound": "N#C[C@@H]1CCCC[C@H]1Nc1nc(Nc2cc(Cl)c3c(c2)COB3O)ncc1C(F)(F)F (relative stereo) [Example 021]",
    "tested-target": "JAK2 (Homo sapiens (Human), UniProt O60674)",
    "recorded-number": 3.2
  },
  {
    "compound": "Cc1cnc(Nc2cc(Cl)c3c(c2)C(C(C)C)=CB(O)O3)nc1N[C@H]1COCC[C@@H]1C#N (single isomer, unassigned) [Example 040b]",
    "tested-target": "JAK2 (Homo sapiens (Human), UniProt O60674)",
    "recorded-number": 16.7
  },
  {
    "compound": "Cc1cnc(Nc2ccc3c(c2)C=CB(O)O3)nc1N[C@@H]1CCC[C@H]1C#N (relative stereo) [Example 007]",
    "tested-target": "JAK2 (Homo sapiens (Human), UniProt O60674)",
    "recorded-number": 52.6
  }
]

---

Assay: Dog LM (liver microsome) assay
Type: in vitro ADME
Conditions: Table 3a; predicted clearance as percent of liver blood flow, 1 μM, 1 mg/ml microsomal protein

[
  {
    "molecule": "Cc1cnc(Nc2cc(Cl)c3c(c2)COB3O)nc1NC1CCCCC1C#N (racemic)",
    "Dog LM QH": "<19.9%"
  },
  {
    "molecule": "Cc1cnc(Nc2cc3c(c(C(F)(F)F)c2)B(O)OC3)nc1NC1CCCCC1C#N (racemic)",
    "Dog LM QH": "<19.9%"
  },
  {
    "molecule": "Cc1cnc(Nc2ccc3c(c2)C(C)(C)OB3O)nc1N[C@@H]1COCC[C@H]1C#N (relative stereo)",
    "Dog LM QH": "42.0%"
  },
  {
    "molecule": "Cc1cnc(Nc2ccc3c(c2)C(C(C)C)=CB(O)O3)nc1N[C@H]1COCC[C@@H]1C#N (single isomer, unassigned) [Example 039a]",
    "Dog LM QH": "78.4%"
  },
  {
    "molecule": "Cc1cnc(Nc2cc(Cl)c3c(c2)COB3O)nc1N[C@@H]1COCC[C@H]1C#N (single isomer, unassigned) [Example 031b]",
    "Dog LM QH": "<19.9%"
  },
  {
    "molecule": "Cc1cnc(Nc2ccc3c(c2)COB3O)nc1NC1COCCC1C#N (racemic)",
    "Dog LM QH": "<19.9%"
  },
  {
    "molecule": "Cc1cnc(Nc2cc(C)c3c(c2)COB3O)nc1N[C@@H]1CCC[C@H]1C#N (relative stereo)",
    "Dog LM QH": "<19.9%"
  },
  {
    "molecule": "CC1=Cc2cc(Nc3ncc(C)c(N[C@@H]4CCCC[C@H]4C#N)n3)ccc2OB1O (relative stereo)",
    "Dog LM QH": "70.2%"
  },
  {
    "molecule": "Cc1cnc(Nc2cc(Cl)c3c(c2)COB3O)nc1NC1CCCC1C#N (racemic)",
    "Dog LM QH": "<19.9%"
  },
  {
    "molecule": "Cc1cnc(Nc2cc(F)c3c(c2)COB3O)nc1N[C@@H]1COCC[C@H]1C#N (single isomer, unassigned) [Example 029a]",
    "Dog LM QH": "<19.9%"
  },
  {
    "molecule": "Cc1cnc(Nc2cc(C#N)c3c(c2)COB3O)nc1N[C@H]1CCCC[C@@H]1C#N (single isomer, unassigned) [Example 012b]",
    "Dog LM QH": "<19.9%"
  }
]

---

In this section, each of the compounds is paired with its reported pIC50.
Tested on: GM-CSF/pSTAT5
Assay: Cytokine function assay GM-CSF/pSTAT5 in lysed whole blood cells
Format: cell-based
Conditions: Whole blood cell, read-out: IC50 GM-CSF
Experimental: Cytokine Function Assay Protocols for IL-4/pSTAT6 and GM-CSF/pSTAT5 GM-CSF/pSTAT5: • Whole blood from a healthy donor was lysed to remove red blood cells. Cells were plated onto a 96 well plate. Compound was added and incubated for 1 hour (at 37° C.). After 1 hour, cells were stimulated with GM-CSF for 15 minutes. Cells were fixed and stained with anti-pSTAT5 antibody. After staining, cells were read on a Beckman-Coulter CytoFLEX.
pIC50: −log10 of the molar value.
parameter: pIC50

[
  {
    "compound": "Cc1cnc(Nc2cc3c(c(C(F)(F)F)c2)B(O)OC3)nc1NC1CCCCC1C#N (racemic)",
    "parameter": "pIC50",
    "reading-qualifier": "=",
    "recorded-number": 5.94
  },
  {
    "compound": "Cc1cnc(Nc2ccc3c(c2)C(C)(C)OB3O)nc1N[C@@H]1COCC[C@H]1C#N (relative stereo)",
    "parameter": "pIC50",
    "reading-qualifier": "=",
    "recorded-number": 6.05
  },
  {
    "compound": "N#C[C@@H]1CCCC[C@H]1Nc1nc(Nc2ccc3c(c2)COB3O)ncc1Cl (relative stereo)",
    "parameter": "pIC50",
    "reading-qualifier": "=",
    "recorded-number": 5.00
  },
  {
    "compound": "Cc1cnc(Nc2cc3c(c(C(F)(F)F)c2)B(O)OC3)nc1N[C@H]1CCCC[C@@H]1C#N (single isomer, unassigned) [Example 011a]",
    "parameter": "pIC50",
    "reading-qualifier": "=",
    "recorded-number": 5.83
  },
  {
    "compound": "Cc1cnc(Nc2ccc3c(c2)COB3O)nc1NC1COCCC1C#N (racemic)",
    "parameter": "pIC50",
    "reading-qualifier": "=",
    "recorded-number": 5.57
  },
  {
    "compound": "Cc1cc(Nc2ncc(Cl)c(N[C@H]3COCC[C@@H]3C#N)n2)cc2c1B(O)OC2 (single isomer, unassigned) [Example 041a]",
    "parameter": "pIC50",
    "reading-qualifier": "<",
    "recorded-number": 5.00
  },
  {
    "compound": "Cc1cnc(Nc2cc(Cl)c3c(c2)COB3O)nc1NC1CCCC1C#N (racemic)",
    "parameter": "pIC50",
    "reading-qualifier": "=",
    "recorded-number": 5.84
  },
  {
    "compound": "Cc1cnc(Nc2cc(Cl)c3c(c2)COB3O)nc1NC1CCCCC1C#N (racemic)",
    "parameter": "pIC50",
    "reading-qualifier": "=",
    "recorded-number": 5.99
  },
  {
    "compound": "Cc1cnc(Nc2cc3c(c(C(F)(F)F)c2)B(O)OC3)nc1N[C@H]1COC[C@@H]1C#N (single isomer, unassigned) [Example 043a]",
    "parameter": "pIC50",
    "reading-qualifier": "=",
    "recorded-number": 5.38
  },
  {
    "compound": "Cc1cnc(Nc2cc(Cl)c3c(c2)COB3O)nc1N[C@@H]1CCC[C@H]1C#N (single isomer, unassigned) [Example 003a]",
    "parameter": "pIC50",
    "reading-qualifier": "=",
    "recorded-number": 5.65
  },
  {
    "compound": "Cc1cnc(Nc2cc(Cl)c3c(c2)COB3O)nc1NC1CCCC[C@@H]1C#N (single isomer, unassigned) [Example 010a]",
    "parameter": "pIC50",
    "reading-qualifier": "=",
    "recorded-number": 6.33
  },
  {
    "compound": "Cc1cnc(Nc2cc(Cl)c3c(c2)COB3O)nc1NC1COCCC1C#N (racemic)",
    "parameter": "pIC50",
    "reading-qualifier": "=",
    "recorded-number": 5.50
  },
  {
    "compound": "N#CC1CCOCC1Nc1nc(Nc2cc(F)c3c(c2)COB3O)ncc1Cl (centres unmarked)",
    "parameter": "pIC50",
    "reading-qualifier": "=",
    "recorded-number": 5.68
  },
  {
    "compound": "Cc1cnc(Nc2cc(F)c3c(c2)COB3O)nc1N[C@@H]1COCC[C@H]1C#N (single isomer, unassigned) [Example 029a]",
    "parameter": "pIC50",
    "reading-qualifier": "=",
    "recorded-number": 5.93
  }
]

---

In this section, each of the compounds is paired with its reported pIC50.
Target: PDE4B (Homo sapiens (Human))
Sequence (Q07343 whole entry, species assumed): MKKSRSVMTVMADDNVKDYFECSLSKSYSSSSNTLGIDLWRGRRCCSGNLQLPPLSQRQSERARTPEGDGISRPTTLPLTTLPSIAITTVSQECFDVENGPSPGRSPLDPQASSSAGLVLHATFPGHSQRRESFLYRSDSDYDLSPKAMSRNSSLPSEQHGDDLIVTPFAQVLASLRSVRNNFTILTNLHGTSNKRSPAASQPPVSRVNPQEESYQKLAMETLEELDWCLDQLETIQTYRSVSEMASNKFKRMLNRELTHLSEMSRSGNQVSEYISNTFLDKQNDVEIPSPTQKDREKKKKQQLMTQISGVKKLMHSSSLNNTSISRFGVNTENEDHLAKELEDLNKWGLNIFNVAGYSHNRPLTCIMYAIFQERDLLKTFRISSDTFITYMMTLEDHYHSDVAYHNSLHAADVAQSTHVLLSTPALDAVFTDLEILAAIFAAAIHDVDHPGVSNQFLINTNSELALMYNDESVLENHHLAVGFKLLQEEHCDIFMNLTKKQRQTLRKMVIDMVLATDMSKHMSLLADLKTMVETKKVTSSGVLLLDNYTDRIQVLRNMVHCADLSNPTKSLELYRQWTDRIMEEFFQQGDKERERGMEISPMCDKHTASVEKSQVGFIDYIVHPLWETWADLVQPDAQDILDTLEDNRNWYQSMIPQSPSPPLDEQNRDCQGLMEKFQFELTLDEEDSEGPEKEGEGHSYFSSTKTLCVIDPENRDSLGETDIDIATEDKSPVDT
Test: PDE4B inhibition
Type: biochemical
Details: Table 3a
pIC50: −log10 of the molar value.
parameter: pIC50

[
  {
    "compound": "Cc1cnc(Nc2ccc3c(c2)COB3O)nc1N[C@@H]1CCC[C@H]1C#N (relative stereo)",
    "parameter": "pIC50",
    "recorded-number": 6.44
  },
  {
    "compound": "Cc1cnc(Nc2cc(C)c3c(c2)COB3O)nc1N[C@@H]1CCC[C@H]1C#N (relative stereo)",
    "parameter": "pIC50",
    "recorded-number": 6.08
  },
  {
    "compound": "Cc1cnc(Nc2ccc3c(c2)COB3O)nc1N[C@@H]1COCC[C@H]1C#N (single isomer, unassigned) [Example 026a]",
    "parameter": "pIC50",
    "recorded-number": 6.01
  },
  {
    "compound": "Cc1cnc(Nc2cc(F)c3c(c2)COB3O)nc1NC1COCCC1C#N (racemic)",
    "parameter": "pIC50",
    "recorded-number": 6.01
  },
  {
    "compound": "N#C[C@@H]1CCC[C@H]1Nc1nc(Nc2ccc3c(c2)COB3O)ncc1Cl (relative stereo)",
    "parameter": "pIC50",
    "recorded-number": 7.35
  },
  {
    "compound": "Cc1cnc(Nc2cc(F)c3c(c2)COB3O)nc1N[C@@H]1COCC[C@H]1C#N (single isomer, unassigned) [Example 029a]",
    "parameter": "pIC50",
    "recorded-number": 6.42
  }
]
